For each entry below, report its pKd value.
measurement target: PD-L1 (antigen of the kinetic measurements) (human, UniProt Q9NZQ7)
Sequence (Q9NZQ7 19-238 limits assumed): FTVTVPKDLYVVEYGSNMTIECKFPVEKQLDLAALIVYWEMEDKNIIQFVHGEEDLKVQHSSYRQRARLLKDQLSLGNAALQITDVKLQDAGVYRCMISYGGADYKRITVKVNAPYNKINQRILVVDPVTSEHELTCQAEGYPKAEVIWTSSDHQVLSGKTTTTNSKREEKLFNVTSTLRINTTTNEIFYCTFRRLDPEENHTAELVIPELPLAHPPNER
procedure summary: kinetic measurements for aPDL1 antibodies; instrument and antigen format not stated
Numbers only, as −log10 of the molar value.

Some binders with recorded pKd:
1G1 (antibody, V domains shown, anti-PD-L1 clone; also called Ab 1G1) VH: EVQLVQSGAEVKKPGSSVRVSCKASGGTFSSYAISWVRQAPGQGLEWMGRIIPILGIANYAQKFQGRVTITADKSTSTAYMELSSLRSEDTAVYYCASGSIVGAAYAFDIWGQGTTVTVSS VL: QSVLTQPPSVSVAPGKAANLNCGGKNIGGRVVHWYQQRPGQAPVLVIYDDTDRPSGIPERFSGSNSGNTATLTITDVEVGDEADYYCQVWDSRSDHPVFGGGTTLTVL: 9.06
1E1. (antibody, V domains shown, anti-PD-L1 clone; also called Ab 1E1) VH: QVQLVQSGVEMKKPGASVRVSCKGSGYTFSSYGISWVRQAPGQGLEWMGWISAHNGHASNAQKLEDRVTMTTDTSTNTAYMELRSLTSDDTAVYYCARVHGALYYGMDVWGQGTTVTVSS VL: SYELTQPPSVSVAPGQTARIPCGANNIGGKSVHWYQQKPGQAPVLVVYDDRDRPSGIPERFSGSNSGNTATLTISRVEAGDEADYYCQVWDSSSDHWVFGGGTKLTVL: 8.05

Okay, next one:
Answer with the recorded pKd of 1A6 (antibody, V domains shown, anti-PD-L1 clone; also called Ab 1A6) VH: QVQLVQSGGEVKKPGASVKVSCKASGYTLSSHGITWVRQAPGQGLEWMGWISAHNGHASNAQKVEDRVTMTTDTSTNTAYMELRSLTADDTAVYYCARVHAALYYGMDVWGQGTLVTVSS VL: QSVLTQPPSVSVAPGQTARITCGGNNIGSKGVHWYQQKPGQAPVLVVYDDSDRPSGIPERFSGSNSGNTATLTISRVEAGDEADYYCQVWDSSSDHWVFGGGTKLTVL only.
6.04
